Method: Clinical Study 1: plasma/serum AZT by radioimmunoassay, AZT alone then AZT + inosiplex
Format: in vivo, AIDS patients
Conditions: human, plasma, po, 100 mg, mean peak plasma level of AZT, 100 mg AZT with 1 gm INPX every 6 hrs, day 14; standard deviation 1.5 μM, range 0.14 to 4.4 μM
Reported Property: Cmax (nM)
Express the result in nM but write the number alone.

Give the measured Cmax of Cc1cn([C@H]2C[C@H](N=[N+]=[N-])[C@@H](CO)O2)c(=O)[nH]c1=O .
2250

* * *

Method: Clinical Study No. 2: plasma/serum AZT by radioimmunoassay, AZT alone then AZT + p-acetamidobenzoic acid
Format: in vivo, AIDS patients
Conditions: read-out: mean nadir level of AZT; AZT alone 100 mg oral every 6 hours, day 7; standard deviation 0.19 μM, range 0.04 to 0.6 μM
Reported Property: concentration (nM)
Express the result in nM but write the number alone.

Give the measured concentration of Cc1cn([C@H]2C[C@H](N=[N+]=[N-])[C@@H](CO)O2)c(=O)[nH]c1=O .
250
